molecular target: Ylr278c (UniProt Q05854); assay: PBM E-score (8-mer binding enrichment) (E-score (-0.5 to 0.5)); higher = stronger / more preferred TF binding; conditions: protein concentration: 200 nM; construct: GST-DNA-binding domain
Sequence (Q05854 whole entry, the tested form may be a part): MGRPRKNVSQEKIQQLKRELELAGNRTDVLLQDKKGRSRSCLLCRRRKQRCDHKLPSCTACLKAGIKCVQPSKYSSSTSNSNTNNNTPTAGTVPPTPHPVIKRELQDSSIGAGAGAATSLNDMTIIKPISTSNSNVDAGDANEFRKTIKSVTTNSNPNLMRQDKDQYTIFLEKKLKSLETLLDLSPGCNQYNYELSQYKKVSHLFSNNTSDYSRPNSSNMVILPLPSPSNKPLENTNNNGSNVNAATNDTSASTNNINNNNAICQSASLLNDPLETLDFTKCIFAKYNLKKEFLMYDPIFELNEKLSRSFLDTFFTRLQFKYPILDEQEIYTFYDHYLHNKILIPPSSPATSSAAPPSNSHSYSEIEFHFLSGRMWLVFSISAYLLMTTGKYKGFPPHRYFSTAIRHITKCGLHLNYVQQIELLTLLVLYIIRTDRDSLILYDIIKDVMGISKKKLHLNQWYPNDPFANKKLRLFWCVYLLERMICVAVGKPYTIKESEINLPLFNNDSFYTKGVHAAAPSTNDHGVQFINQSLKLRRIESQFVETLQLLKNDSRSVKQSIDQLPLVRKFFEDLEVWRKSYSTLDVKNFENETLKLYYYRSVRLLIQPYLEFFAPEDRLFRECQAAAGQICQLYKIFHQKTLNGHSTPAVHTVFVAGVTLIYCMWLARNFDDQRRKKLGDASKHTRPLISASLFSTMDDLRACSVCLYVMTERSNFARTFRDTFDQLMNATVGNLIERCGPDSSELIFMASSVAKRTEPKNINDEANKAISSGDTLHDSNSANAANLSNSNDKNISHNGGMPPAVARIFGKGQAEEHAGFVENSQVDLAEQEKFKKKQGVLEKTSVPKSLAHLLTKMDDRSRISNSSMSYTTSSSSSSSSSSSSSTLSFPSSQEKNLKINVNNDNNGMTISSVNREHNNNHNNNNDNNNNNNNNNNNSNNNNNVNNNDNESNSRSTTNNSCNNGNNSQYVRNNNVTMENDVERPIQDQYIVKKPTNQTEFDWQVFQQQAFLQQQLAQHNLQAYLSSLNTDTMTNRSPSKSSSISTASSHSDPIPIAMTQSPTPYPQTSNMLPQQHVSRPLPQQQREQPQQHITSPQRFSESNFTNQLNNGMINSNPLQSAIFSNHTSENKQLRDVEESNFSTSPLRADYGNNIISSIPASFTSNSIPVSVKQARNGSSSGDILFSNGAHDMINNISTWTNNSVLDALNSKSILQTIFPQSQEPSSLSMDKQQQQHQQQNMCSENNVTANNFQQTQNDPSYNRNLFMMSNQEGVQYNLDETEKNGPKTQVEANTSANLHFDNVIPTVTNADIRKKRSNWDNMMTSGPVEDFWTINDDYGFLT
The full ranking holds about 33,000 sequences; the median of “E-score (-0.5 to 0.5)” is about -0.054, and the highest 2% start at about 0.39. This is one part of a sample in which the highest values are shown more often than they occur.
Just so you know, the groups by PBM E-score go like this: low band = under -0.07, middle band = from -0.07 up to 0.08, high band = 0.08 and over

Solved cases (2 shown):
>  <Seq string>
GCCTTTAC

>  <Target or system>
Ylr278c (UniProt Q05854)

>  <Group>
middle band

$$$$
>  <Seq string>
ATTGGCAC

>  <Target or system>
Ylr278c (UniProt Q05854)

>  <Group>
low band

$$$$

IN: Hi, small favor: classify CACCCCAA by its PBM E-score when you get a moment.
OUT: middle band

IN: // repeat for GTACAACA and report
OUT: middle band

IN: // repeat for GCTCCAAA and report
OUT: low band

IN: // repeat for AACCCATC and report
OUT: middle band

IN: // repeat for GCTCCGAC and report
OUT: high band

IN: // repeat for ACTCCTAT and report
OUT: middle band
